pIC50: −log10 of the molar value.
Here's what we have: pIC50 numbers for Acetylcholinesterase (Homo sapiens).

>  <compound structure>
C=CCc1ccc(Oc2cc(CC=C)cc(-c3cc(CC=C)ccc3O)c2O)cc1

>  <pIC50>
5.00

$$$$
>  <compound structure>
C=CCc1ccc(O)c(-c2cc(CC=C)cc(-c3cc(CC=C)ccc3O)c2O[C@@H]2C[C@@H](C(C)C)C=C[C@]2(C)O)c1

>  <pIC50>
5.18

$$$$
>  <compound structure>
C=CCc1ccc(O)c(-c2cc(CC=C)cc(-c3cc(CC=C)ccc3O)c2O[C@H]2CC(C)(C)[C@@H]3CC[C@]4(C)C[C@]23CC[C@H]4O)c1

>  <pIC50>
5.34

$$$$
